The values you see were collected from patent US12258327B2.

Target: EGFR del19/T790M/C797S (Homo sapiens, UniProt P00533, C797S/DEL746-750/T790M)
Sequence (P00533 with tags, fused parts or gaps DEL746-750/T790M/C797S): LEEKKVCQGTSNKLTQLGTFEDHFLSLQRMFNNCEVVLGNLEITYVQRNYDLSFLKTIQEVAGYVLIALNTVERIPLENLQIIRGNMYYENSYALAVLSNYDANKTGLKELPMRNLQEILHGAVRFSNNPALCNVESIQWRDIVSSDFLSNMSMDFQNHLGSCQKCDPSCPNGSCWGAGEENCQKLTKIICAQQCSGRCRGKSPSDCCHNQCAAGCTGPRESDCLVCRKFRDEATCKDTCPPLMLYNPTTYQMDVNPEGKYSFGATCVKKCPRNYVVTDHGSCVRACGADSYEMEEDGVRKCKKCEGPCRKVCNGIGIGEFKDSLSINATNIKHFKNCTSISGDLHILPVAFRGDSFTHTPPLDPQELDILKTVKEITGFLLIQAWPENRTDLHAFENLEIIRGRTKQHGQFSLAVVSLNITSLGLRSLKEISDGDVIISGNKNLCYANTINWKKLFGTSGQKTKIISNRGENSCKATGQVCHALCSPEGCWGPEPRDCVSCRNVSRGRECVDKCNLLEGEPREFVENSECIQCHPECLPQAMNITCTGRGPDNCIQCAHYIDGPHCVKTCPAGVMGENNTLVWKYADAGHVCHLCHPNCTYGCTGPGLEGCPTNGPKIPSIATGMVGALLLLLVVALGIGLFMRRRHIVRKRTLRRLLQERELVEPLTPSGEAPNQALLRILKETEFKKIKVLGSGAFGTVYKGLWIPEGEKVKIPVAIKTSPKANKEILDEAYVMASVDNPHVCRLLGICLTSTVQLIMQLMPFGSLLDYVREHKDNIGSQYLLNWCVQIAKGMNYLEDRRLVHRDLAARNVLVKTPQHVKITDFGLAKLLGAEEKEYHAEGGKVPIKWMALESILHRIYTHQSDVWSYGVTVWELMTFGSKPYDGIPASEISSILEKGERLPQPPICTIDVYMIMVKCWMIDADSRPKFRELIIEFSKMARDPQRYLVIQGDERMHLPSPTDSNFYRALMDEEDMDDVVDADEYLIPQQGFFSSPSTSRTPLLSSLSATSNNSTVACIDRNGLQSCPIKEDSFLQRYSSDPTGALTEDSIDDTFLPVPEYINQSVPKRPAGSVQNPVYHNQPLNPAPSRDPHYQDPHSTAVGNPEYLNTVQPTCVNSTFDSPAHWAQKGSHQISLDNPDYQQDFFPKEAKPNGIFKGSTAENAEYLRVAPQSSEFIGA
Assay: Biochemical EGFR kinase assay (Lance Ultra TR-FRET), triple mutant del19/T790M/C797S
Settings: Km ATP; read-out: IC50 del19/T790M/C797S (nM) Km ATP
Catalogue of IC50 readings, one per entry.
Express the result in nM but write the number alone.

Known results for molecules:
* O=S(=O)(C1CC1)n1cc(-c2nccc(Nc3cc(NC[C@H]4C[C@H](O)C4)c(-c4ccn(C(F)F)n4)cn3)n2)cn1 | 0.4
* Cn1nc(-c2cnc(Nc3ccnc(-c4cnn(CC(F)F)c4)n3)cc2NN2CCC(O)CC2)cc1C(F)(F)F | 1.8
* CN(C)C[C@H]1CC[C@@H](Nc2cc(Nc3ccnc(-c4cnn(S(=O)(=O)C5CC5)c4)n3)ncc2-c2ccn(C(F)F)n2)CC1 | 0.1

Incoming: State the recorded IC50 for this entry: `C[C@]1(O)CC[C@@H](Nc2cc(Nc3ccnc(-c4cnn(S(=O)(=O)C5CC5)c4)n3)ncc2-c2cn3c(n2)CCC3)CC1`
Outgoing: 0.3

Incoming: Item under review: O=S(=O)(C1CC1)n1cc(-c2nccc(Nc3cc(NC4CCCC4O)c(-c4ccn(C(F)F)n4)cn3)n2)cn1 (stereo not drawn) . Reported IC50?
Outgoing: 1.1

Incoming: Record request: IC50 value, item `C[C@]1(O)CC[C@@H](Nc2cc(Nc3ccnc(-c4cnn(S(=O)(=O)C5CCCC5)c4)n3)ncc2-c2ccn(C(F)F)n2)CC1`
Outgoing: 1.9
